Target: serine acetyltransferase
Experiment: Serine acetyltransferase enzyme activity test with and without L-cysteine (inhibitor constant Ki, specific activity)
Format: biochemical, E. coli
Details: Table 1b; carboxyterminal deletions; inhibitor L-cysteine
pKi: −log10 of the molar value.
Form field: pKi (one value per entry).
measureName: pKi

molecule	measureName	dataValue
cysE-Del259: carboxyterminal deletion of 14 amino acids, terminal His259 (protein, UniProt P0A9D4 1-259, looked up, fragment) MSCEELEIVWNNIKAEARTLADCEPMLASFYHATLLKHENLGSALSYMLANKLSSPIMPAIAIREVVEEAYAADPEMIASAACDIQAVRTRDPAVDKYSTPLLYLKGFHALQAYRIGHWLWNQGRRALAIFLQNQVSVTFQVDIHPAAKIGRGIMLDHATGIVVGETAVIENDVSILQSVTLGGTGKSGGDRHPKIREGVMIGAGAKILGNIEVGRGAKIGAGSVVLQPVPPHTTAAGVPARIVGKPDSDKPSMDMDQH	pKi	5.12
cysE-Del258: carboxyterminal deletion of 15 amino acids, terminal Gln258 (protein, UniProt P0A9D4 1-258, looked up, fragment) MSCEELEIVWNNIKAEARTLADCEPMLASFYHATLLKHENLGSALSYMLANKLSSPIMPAIAIREVVEEAYAADPEMIASAACDIQAVRTRDPAVDKYSTPLLYLKGFHALQAYRIGHWLWNQGRRALAIFLQNQVSVTFQVDIHPAAKIGRGIMLDHATGIVVGETAVIENDVSILQSVTLGGTGKSGGDRHPKIREGVMIGAGAKILGNIEVGRGAKIGAGSVVLQPVPPHTTAAGVPARIVGKPDSDKPSMDMDQ	pKi	5.30
